Value source: paper PMC2905418

# system_name: T1, Qk-1-STAR (mouse, UniProt Q9QYS9 7-214)
# T1 sequence: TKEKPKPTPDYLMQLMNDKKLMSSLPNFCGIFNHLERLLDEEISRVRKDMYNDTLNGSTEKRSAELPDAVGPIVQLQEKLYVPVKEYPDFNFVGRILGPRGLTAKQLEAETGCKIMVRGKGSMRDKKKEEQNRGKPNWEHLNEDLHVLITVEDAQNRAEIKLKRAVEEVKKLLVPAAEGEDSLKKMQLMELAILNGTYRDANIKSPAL
# test_details: EMSA; second shift (K2); 10 mM Tris pH 8.0, 25 mM NaCl, 0.1 mM EDTA, 0.1 mg/mL tRNA, 5 ug/mL heparin, 0.01% IGEPAL CA630, room temperature, 3 h; EMSA gel 6% native, 0.5x TBE, 4 C
# run_parameters: protein: recombinant; tags: MBP fusion; chain copies: 2; label: 5' 32P
measurement_type: Kd

Q: Return reported Kd; argument: GACACACUAACCUCGGUGGAAACUCUUACAU (ssRNA) [MBP:2-3'm2]
Ans: 199 nM

Q: Then GACACACUAACCUCGGUGGAAAAAUAACCAU (ssRNA) [MBP:2 (WT)] ?
Ans: 269 nM
